- Measured Target: c-met (Homo sapiens)
- Construct: Cell lysate of human colon adenocarcinoma HT29 known for its high content of c-met; endogenous in cells; host or cells: HT29 (ATCC HTB-38), human colon adenocarcinoma
- Sequence (P08581 25-1390): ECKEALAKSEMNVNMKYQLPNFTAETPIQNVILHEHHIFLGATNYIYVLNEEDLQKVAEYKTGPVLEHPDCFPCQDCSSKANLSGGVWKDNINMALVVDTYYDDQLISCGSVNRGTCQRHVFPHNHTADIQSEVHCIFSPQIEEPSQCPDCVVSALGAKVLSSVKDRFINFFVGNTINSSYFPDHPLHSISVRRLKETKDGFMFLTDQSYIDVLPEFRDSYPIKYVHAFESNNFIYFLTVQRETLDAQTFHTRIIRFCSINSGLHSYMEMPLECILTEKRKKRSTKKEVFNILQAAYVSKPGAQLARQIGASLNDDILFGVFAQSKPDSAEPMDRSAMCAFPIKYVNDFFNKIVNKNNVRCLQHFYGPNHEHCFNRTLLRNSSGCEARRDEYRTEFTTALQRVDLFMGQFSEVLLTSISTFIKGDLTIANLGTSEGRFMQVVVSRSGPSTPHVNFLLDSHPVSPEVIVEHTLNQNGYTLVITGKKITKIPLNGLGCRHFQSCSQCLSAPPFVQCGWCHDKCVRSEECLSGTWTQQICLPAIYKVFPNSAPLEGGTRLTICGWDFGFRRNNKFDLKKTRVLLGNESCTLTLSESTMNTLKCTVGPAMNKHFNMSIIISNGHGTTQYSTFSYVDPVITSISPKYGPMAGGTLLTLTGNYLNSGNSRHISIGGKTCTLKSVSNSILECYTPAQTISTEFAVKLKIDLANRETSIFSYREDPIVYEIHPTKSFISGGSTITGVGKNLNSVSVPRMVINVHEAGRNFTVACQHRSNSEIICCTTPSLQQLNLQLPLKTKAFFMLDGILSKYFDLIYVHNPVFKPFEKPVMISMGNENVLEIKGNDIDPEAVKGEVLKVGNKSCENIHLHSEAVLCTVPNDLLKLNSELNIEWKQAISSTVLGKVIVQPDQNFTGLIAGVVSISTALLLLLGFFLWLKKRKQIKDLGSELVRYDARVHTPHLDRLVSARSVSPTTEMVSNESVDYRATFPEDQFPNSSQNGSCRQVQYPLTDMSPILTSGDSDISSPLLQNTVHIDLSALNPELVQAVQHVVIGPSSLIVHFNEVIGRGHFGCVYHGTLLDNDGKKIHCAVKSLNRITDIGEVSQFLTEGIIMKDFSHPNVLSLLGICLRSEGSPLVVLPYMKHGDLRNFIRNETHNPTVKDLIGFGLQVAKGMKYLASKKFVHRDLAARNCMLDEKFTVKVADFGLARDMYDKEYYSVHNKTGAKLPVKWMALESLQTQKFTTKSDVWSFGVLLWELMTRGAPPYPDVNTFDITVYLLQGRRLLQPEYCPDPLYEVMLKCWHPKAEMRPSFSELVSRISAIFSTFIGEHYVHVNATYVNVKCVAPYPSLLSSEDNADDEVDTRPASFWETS
- Test Method Notes: C-met-Inhibitor-Assay (ELISA type assay measuring phosphorylation of c-met from HT29 cell lysate)
- Format: biochemical
- Condition Details: ATP final conc. 40 μM, 60 min at room temperature
Outcome Measure: IC50 (nM)

Worked set:
Smiles Entry: CCN(CC)CCOc1ccc(Nc2nccc(-c3nc(-c4c(Cl)cc(CO)cc4Cl)[nH]c3-c3cccc(Cl)c3)n2)cc1
Measured Target: c-met (Homo sapiens)
IC50 [nM]: 4

Smiles Entry: Clc1cccc(-c2nc(-c3c(Cl)cccc3Cl)[nH]c2-c2ccnc(Nc3ccc(N4CCOCC4)cc3)n2)c1
Measured Target: c-met (Homo sapiens)
IC50 [nM]: 84

Smiles Entry: CCN(CC)CCOc1ccc(Nc2nccc(-c3[nH]c(-c4c(Cl)cccc4Cl)nc3-c3ccc(Cl)cc3)n2)cc1
Measured Target: c-met (Homo sapiens)
IC50 [nM]: 609

Smiles Entry: C#Cc1cccc(-c2nc(-c3c(Cl)cccc3Cl)[nH]c2-c2ccnc(Nc3ccc(OCCO)cc3)n2)c1
Measured Target: c-met (Homo sapiens)
IC50 [nM]: 90

I. CN(C)c1ccc(Nc2nccc(-c3[nH]c(-c4c(Cl)cccc4Cl)nc3-c3cccc(Cl)c3)n2)cc1
II. CCN(CC)CCOc1ccc(Nc2nccc(-c3[nH]c(-c4c(Cl)cccc4Cl)nc3-c3cccc(Br)c3)n2)cc1
Query block: Hi there, can you help? I need to know whether I or II has lower measured IC50. # answer = label of selected item
Result block: II
(II: 5 nM, I: 167 nM)

----------
// each record: one item and its IC50 for Src (p60^c-src) (Homo sapiens, UniProt P12931)
Outcome Measure: IC50 (nM)

Compound: C[S+]([O-])c1ccc(Nc2nccc(-c3[nH]c(-c4c(Cl)cc(OCCO)cc4Cl)nc3-c3cccc(Cl)c3)n2)cc1 (stereo not drawn) [Example H2.3.2]
IC50 [nM]: 331
--
Compound: CCN(CC)CCOc1ccc(Nc2nccc(-c3nc(-c4c(Cl)cc(CO)cc4Cl)[nH]c3-c3cccc(Cl)c3)n2)cc1 [Example H2.2.1]
IC50 [nM]: 0.5

1. CCN(CC)CCOc1ccc(Nc2nccc(-c3[nH]c(-c4c(Cl)cccc4Cl)nc3-c3ccc(Cl)cc3)n2)cc1 [Example H3.1.1]
2. CCN(CC)CCOc1ccc(Nc2nccc(-c3[nH]c(-c4c(Cl)cccc4Cl)nc3-c3cccc(Br)c3)n2)cc1 [Example H1.1]
Query block: Hi there, can you help? I need to know whether 1 or 2 has lower measured IC50. # answer = label of selected item
Result block: 2
